tgt: T1, AF9-YEATS Y78W (human, UniProt P42568 1-138, Y78W)
T1 construct: AF9, human, YEATS domain, aa 1-138 with Y78W; also called Y78W mutant; source: E. coli BL21 (DE3) RIL, purified
T1 sequence (looked up): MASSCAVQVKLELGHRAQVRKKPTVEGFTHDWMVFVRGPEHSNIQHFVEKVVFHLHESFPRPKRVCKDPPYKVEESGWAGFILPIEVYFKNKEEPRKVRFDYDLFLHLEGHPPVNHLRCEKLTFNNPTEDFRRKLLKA
assay: other fluorescence titration; tryptophan fluorescence; 1-2 µM wild-type or mutated AF9 YEATS domain in 20 mM Tris pH 7.5, 500 mM NaCl, 2 mM BME, 25 °C, increasing concentrations of H3 peptide (aa 5-13)
recorded conditions: both partners purified
Where no end group is shown, it is not given here.
observed property: pKd
Note: pKd values are expressed as the negative base-10 logarithm of concentration in M.

## Input Form field: reported pKd of QTARK(Ac)STGG (peptide, UniProt P68431 6-14, looked up, histone H3, residues 5-13, K9 acetylated; source: bought: Synpeptide) [histone H3K9ac peptide (aa 5-13)]
## Output 5.70

// provenance: paper PMC6212594
